TEST_TARGET: E. coli apo-SdhA (Escherichia coli)
Construct: His6 (N); made in house; host or cells: E. coli RP437 ΔsdhE (RP-E), plasmid pCA24N-SdhA
Sequence (P0AC41 whole entry): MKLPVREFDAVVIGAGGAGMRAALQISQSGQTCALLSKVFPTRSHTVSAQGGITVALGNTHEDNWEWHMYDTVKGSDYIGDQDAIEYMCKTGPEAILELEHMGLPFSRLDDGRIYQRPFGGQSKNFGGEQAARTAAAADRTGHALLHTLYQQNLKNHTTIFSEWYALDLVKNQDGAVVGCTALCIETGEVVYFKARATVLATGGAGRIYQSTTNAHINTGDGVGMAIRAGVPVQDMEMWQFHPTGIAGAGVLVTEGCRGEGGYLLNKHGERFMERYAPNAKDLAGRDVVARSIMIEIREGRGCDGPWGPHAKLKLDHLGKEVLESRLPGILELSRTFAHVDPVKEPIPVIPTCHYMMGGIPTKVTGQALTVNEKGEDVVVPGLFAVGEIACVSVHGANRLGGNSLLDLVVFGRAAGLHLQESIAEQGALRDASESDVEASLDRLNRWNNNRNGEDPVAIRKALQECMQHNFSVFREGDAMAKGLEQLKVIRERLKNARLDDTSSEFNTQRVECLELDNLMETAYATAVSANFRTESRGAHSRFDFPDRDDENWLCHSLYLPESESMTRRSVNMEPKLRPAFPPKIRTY
PROTOCOL_NOTES: biochemical
Type: biochemical
SETTINGS: +SdhE 10.4 μM; ligand 20 mM, FAD 100 μM, 1 h, 30 °C
METRIC: Covalent FAD attachment to apo-SdhA, SdhE-dependent

COMPOUND	TEST_TARGET	MEASUREMENT
CC(=O)C(=O)O [Pyruvate]	E. coli apo-SdhA (Escherichia coli)	able to induce
O=C(O)/C=C/C(=O)O [Fumarate]	E. coli apo-SdhA (Escherichia coli)	high levels
O=C(O)CC(=O)O [malonate]	E. coli apo-SdhA (Escherichia coli)	~30%
O=C(O)CC(O)(CC(=O)O)C(=O)O [citrate]	E. coli apo-SdhA (Escherichia coli)	able to induce
O=C(O)CC(=O)C(=O)O [oxaloacetate]	E. coli apo-SdhA (Escherichia coli)	high levels
O=C(O)CC(O)C(=O)O (stereo not drawn) [Malate, malate]	E. coli apo-SdhA (Escherichia coli)	high levels
CC(=O)O [acetate]	E. coli apo-SdhA (Escherichia coli)	~30%
O=C(O)CCC(=O)O [Succinate, succinate]	E. coli apo-SdhA (Escherichia coli)	high levels
N[C@@H](CC(=O)O)C(=O)O [Aspartate, L-aspartate]	E. coli apo-SdhA (Escherichia coli)	high levels
